assay: Pharmacokinetics in Cynomolgus monkeys, single subcutaneous or intravenous dose; type: in vivo; settings: both sexes, cynomolgus monkey, plasma, iv, 190 nmol/kg, single intravenous dose 190 nmol/kg, individual animal
*1 amine or outer side, *2 acyl side, *3 side chain or, on linkers, in order; H or OH if unused. [ ]: non-standard residue; d: D form. The star is where a group is joined. C20 diacid = O=C(O)CCCCCCCCCCCCCCCCCCC(=O)*; γGlu = O=C(O)[C@H](CCC(=O)[*:2])N[*:1]; εLys = N[C@@H](CCCCN[*:1])C(=O)[*:2]; αMeL = CC(C)C[C@](C)(N)C(=O)O; AEEA = NCCOCCOCC(=O)O; Aib = CC(C)(N)C(=O)O
MEASUREMENT TYPE: half-life (h)
Provide only the numeric value, understood in h.

Looking for the measured half-life of {C20 diacid-εLys-AEEA-γGlu}-GSPSIVTS[αMeL]DVPT[Aib][αMeL]LQKILEQERAEKARQQATEAAEILAQV-NH2 [SEQ ID NO: 25] , can you help?
100
